type: in vitro ADME; conditions: extraction ratio, compound at 1 uM, mouse liver microsomes 0.5 mg/mL
Liver Microsomal Stability (ER) Mouse values, listed per item
property_name: Liver Microsomal Stability (ER) Mouse

CC(C)C[C@H](NC(=O)c1cc2ccccc2[nH]1)C(=O)N1C[C@H]2[C@@H]([C@H]1C(=O)N[C@@H](C[C@@H]1CCNC1=O)C(=O)CCl)C2(C)C | 0.59
CC1(C)[C@@H]2[C@@H](C(=O)N[C@H](C#N)C[C@@H]3CCNC3=O)N(C(=O)[C@@H](NC(=O)C(F)(F)F)C3CC3)C[C@@H]21 | 0.13
CC(C)C[C@H](NC(=O)c1cc2c(F)cccc2[nH]1)C(=O)N[C@@H](C[C@@H]1CCNC1=O)C(=O)CCl | 0.58

###

assay type: in vitro ADME; details: extraction ratio, compound at 1 uM, mouse liver microsomes 0.5 mg/mL
Item-by-item account of Liver Microsomal Stability (ER) Mouse
property_name: Liver Microsomal Stability (ER) Mouse

Cc1cccc2[nH]c(C(=O)N[C@@H](CC(C)C)C(=O)N[C@H](C=O)C[C@@H]3CCNC3=O)cc12 [Compound A-4-a] | 0.13
CC(C)C[C@H](NC(=O)c1cc2c(F)cccc2[nH]1)C(=O)N[C@H](C#N)C[C@@H]1CCNC1=O [Compound A-3-a] | 0.07
CC(C)C[C@H](NC(=O)c1cc2ccccc2[nH]1)C(=O)N[C@@H](C[C@@H]1CCNC1=O)C(=O)CO [Compound A-1-h] | 0.23
CC(C)C[C@H](NC(=O)c1cc2ccccc2[nH]1)C(=O)N1C[C@H]2[C@@H]([C@H]1C(=O)N[C@H](C=O)C[C@@H]1CCNC1=O)C2(C)C [Compound G-1-a] | 0.00
CC(C)C[C@H](NC(=O)c1cc2ccccc2[nH]1)C(=O)N1C[C@H]2[C@@H]([C@H]1C(=O)N[C@@H](C#N)C[C@@H]1CCNC1=O)C2(C)C [Compound G-1-c] | 0.27
CC(C)C[C@H](NC(=O)c1cc2ccccc2[nH]1)C(=O)N1C[C@H]2[C@@H]([C@H]1C(=O)N[C@H](C(=O)CCl)C(C)C)C2(C)C [Compound G-2-c] | 0.92
C[C@H](NC(=O)[C@@H]1[C@@H]2[C@H](CN1C(=O)[C@@H](NC(=O)C(F)(F)F)C(C)(C)C)C2(C)C)C(=O)CCl [Compound F-1-b] | 0.38
CC(C)(C)[C@H](NC(=O)C1CC1)C(=O)N1C[C@H]2[C@@H]([C@H]1C(=O)N[C@H](C#N)C[C@@H]1CCNC1=O)C2(C)C [Compound H-2-c] | 0.32
CC(C)C[C@H](NC(=O)C(C)C)C(=O)N1C[C@H]2[C@@H]([C@H]1C(=O)N[C@H](C#N)C[C@@H]1CCNC1=O)C2(C)C [Compound H-1-e] | 0.31
CC(C)[C@@H](C#N)NC(=O)[C@@H]1[C@@H]2[C@H](CN1C(=O)[C@@H](NC(=O)C(F)(F)F)C1CC1)C2(C)C [Compound F-4-a] | 0.03
C[C@@H](OC(C)(C)C)[C@H](NC(=O)OCc1ccccc1)C(=O)N[C@@H](CC1CCCCC1)C(=O)N[C@H](C=O)C[C@@H]1CCNC1=O [Compound C-2-b] | 0.48
CC(C)C(=O)N[C@H](C(=O)N1C[C@H]2[C@@H]([C@H]1C(=O)N[C@@H](C[C@@H]1CCNC1=O)C(N)=O)C2(C)C)C(C)(C)C [Compound H-2-b] | 0.37
CC(C)C[C@H](NC(=O)c1cc2ccccc2[nH]1)C(=O)N[C@@H](C[C@@H]1CCNC1=O)C(O)S(=O)(=O)[O-].[Na+] (stereo partly drawn) [Compound A-1-d] | 0.10
CC(C)(C)C(=O)N[C@H](C(=O)N1C[C@H]2[C@@H]([C@H]1C(=O)N[C@H](C#N)C[C@@H]1CCNC1=O)C2(C)C)C(C)(C)C [Compound H-2-a] | 0.83
Cc1cccc2[nH]c(C(=O)N[C@@H](CC(C)C)C(=O)N[C@H](C#N)C[C@@H]3CCNC3=O)cc12 [Compound A-4-b] | 0.47
CC(C)C[C@H](NC(=O)c1cc2ccccc2[nH]1)C(=O)N[C@@H](C[C@@H]1CCNC1=O)C(=O)CCl [Compound A-1-g] | 0.53
CC1(C)[C@@H]2[C@@H](C(=O)N[C@H](C#N)C[C@@H]3CCCNC3=O)N(C(=O)[C@@H](NC(=O)C(F)F)C3CC3)C[C@@H]21 [Compound D-2-e] | 0.17
CC(C)C[C@H](NC(=O)c1cc2ccccc2[nH]1)C(=O)N[C@@H](C[C@@H]1CCNC1=O)C(=O)O [Compound A-1-e] | 0.09
CC(C)C[C@H](CC(=O)[C@@H](NC(=O)OCc1ccccc1)[C@@H](C)OC(C)(C)C)C(=O)N[C@H](C=O)C[C@@H]1CCNC1=O [Compound C-1-b] | 0.45
CC(C)C[C@H](NC(=O)c1cc2ccccc2[nH]1)C(=O)N[C@H](C=O)C[C@@H]1CCNC1=O [Compound A-1-c] | 0.04
CC(C)C[C@H](NC(=O)C(C)(C)C)C(=O)N1C[C@H]2[C@@H]([C@H]1C(=O)N[C@H](C#N)C[C@@H]1CCNC1=O)C2(C)C [Compound H-1-d] | 0.63
CC(C)(C)[C@H](NC(=O)C(F)(F)F)C(=O)N1C[C@H]2[C@@H]([C@H]1C(=O)N[C@@H](C[C@@H]1CCNC1=O)C(=O)CO)C2(C)C [Compound D-1-c] | 0.18
CC(C)(C)[C@H](NC(=O)C(F)(F)F)C(=O)N1C[C@H]2[C@@H]([C@H]1C(=O)N[C@H](C=O)C[C@@H]1CCNC1=O)C2(C)C [Compound D-1-f] | −0.02
CC(C)(C)[C@H](NC(=O)C(F)(F)F)C(=O)N[C@@H](CC1CCCCC1)C(=O)N[C@H](C#N)C[C@@H]1CCNC1=O [Compound D-4-a] | 0.72
